Origin of measurements: PubChem BioAssay (NCATS)

Assay: qHTS for identification of novel therapeutic agents for treatment of microphthalmiaassociated transcription factor (MiT) renal cell carcinoma (RCC) (AID 1963991);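 also: curves scaled with 100% = DMSO viability and 0% = empty wells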
Conditions: TFE3-RCC viability, CellTiter-Glo, 48 h; measured here: UOK124 Z-AUC; stronger effect = lower value
Results filed as inconclusive are left out.
Reported z-score values follow for various compounds
Measured Parameter: z-score

INSERT INTO assay_data (compound, measured_parameter, number) VALUES
  ('CC[N+](CC)(CC)CCOc1cccc(OCC[N+](CC)(CC)CC)c1OCC[N+](CC)(CC)CC', 'z-score', 0.771),
  ('CC(=O)OCC(CCn1cnc2cnc(N)nc21)COC(C)=O', 'z-score', 0.498),
  ('CCOC(=O)C(C)(C)Oc1ccc(Cl)cc1', 'z-score', 0.307),
  ('COc1ccccc1OCC(O)CN1CCN(CC(=O)Nc2c(C)cccc2C)CC1 (configuration not stated)', 'z-score', 0.373),
  ('NS(=O)(=O)c1cc2c(cc1Cl)NCNS2(=O)=O', 'z-score', 0.843),
  ('COc1ccccc1N1CCN(CC(O)COc2cccc3ccccc23)CC1 (configuration not stated)', 'z-score', 0.448),
  ('NCCS(=O)(=O)O', 'z-score', 0.854),
  ('Clc1ccc2c(c1)C(N1CCNCC1)=Nc1ccccc1O2', 'z-score', 0.445),
  ('O=C(c1ccc(F)cc1)C1CCN(CCn2c(=O)[nH]c3ccccc3c2=O)CC1', 'z-score', 0.577),
  ('Nc1c2c(nc3ccccc13)CCCC2', 'z-score', 0.33),
  ('CCc1cccc2c3c([nH]c12)C(CC)(CC(=O)O)OCC3 (configuration not stated)', 'z-score', 0.432),
  ('CC[C@@]1(O)C(=O)OCc2c1cc1n(c2=O)Cc2cc3c(CN(C)C)c(O)ccc3nc2-1', 'z-score', -2.75);
